Quick reference: pKd of the listed items.
# target_under_test: T1, mouse recombinant TGF-β2 (mouse, UniProt P27090 303-414)
# T1 construct: mature; also called mTGF-b2; Mouse TGF-β2
# T1 sequence (looked up): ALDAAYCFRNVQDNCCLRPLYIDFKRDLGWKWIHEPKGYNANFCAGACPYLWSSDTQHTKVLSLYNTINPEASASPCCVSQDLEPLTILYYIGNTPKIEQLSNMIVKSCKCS
# assay_info: BiaCORE (surface plasmon resonance)
Convention used: pKd is expressed as -log10 of the molar concentration.

Record excerpt, results attached:
MOR14800 (antibody, human IgG1, lambda, V domains shown) VH: QVQLVQSGAEVKKPGESLKISCKGSGYSFTRYYVAWVRQMPGKGLEWMGWIDPGQSNTRYSPSFQGQVTISADKSISTAYLQWSSLKASDTAMYYCARMLAWGWFDYWGQGTLVTVSS VL: SYELTQPLSVSVALGQTARITCSGDNLGGYYAHWYQQKPGQAPVLVIYDTSDRPSGIPERFSGSNSGNTATLTISRAQAGDEADYYCASYDSSLMMVFGGGTKLTVLG = 14.96
MOR14799 (antibody, human IgG1, lambda, V domains shown) VH: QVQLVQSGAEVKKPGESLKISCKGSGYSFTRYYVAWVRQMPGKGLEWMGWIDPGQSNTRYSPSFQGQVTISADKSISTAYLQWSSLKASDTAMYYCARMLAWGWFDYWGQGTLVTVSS VL: SYELTQPLSVSVALGQTARITCSGDNLGGYYAHWYQQKPGQAPVLVIYDKSDRPSGIPERFSGSNSGNTATLTISRAQAGDEADYYCASYDSSLMMVFGGGTKLTVLG = 14.56
MOR14787 (antibody, human IgG1, kappa, V domains shown) VH: QVQLVQSGAEVKKPGSSVKVSCKASGGTFSSYAISWVRQAPGQGLEWMGVIVPKWGHPQYAQKFQGRVTITADESTSTAYMELSSLRSEDTAVYYCAREGDFVVLVLTEHYMGGFDVWGQGTLVTVSS VL: DIQMTQSPSSLSASVGDRVTITCRASQSIDEYLNWYQQKPGKAPKLLIYAGSNLQSGVPSRFSGSGSGTDFTLTISSLQPEDFATYYCLQGYSYPRTFGQGTKVEIKR = 11.72

Suppose we examine the binder MOR14809 (antibody, human IgG1, lambda, V domains shown) VH: QVQLVQSGAEVKKPGESLKISCKGSGYSFTRYWIAWVRQMPGKGLEWMGIIDPGTSDTRYSPSFQGQVTISADKSISTAYLQWSSLKASDTAMYYCARIDKSLILHSAFDYWGQGTLVTVSS VL: SYELTQPLSVSVALGQTARITCSGDNLGGYYAYWYQQKPGQAPVLVIYETNNRPSGIPERFSGSNSGNTATLTISRAQAGDEADYYCASTTQDYLVFVFGGGTKLTVLG ; what pKd value has been reported? 14.63

Sourced from patent US20190092846A1
